- experimentalTarget: AMP-activated protein kinase, AMPK (Homo sapiens) (UniProt P54646+O43741+P54619+Q9UGJ0+Q9Y478+Q13131+Q9UGI9)
- protocol: AMP-dependent Kinase enzyme assay. An in vitro enzyme assay that detects ADP turnover that is directly proportional to AMPK activity. This uses naive AMPK that is activated during the assay with MK-8722
- Type: functional
- Parameters: scale not given: direction of the effect not stated beside the values
- conditionDescription: 30 µM
Measured Percent Effect by item
A number alone suffices; assume %.

O=C(NCCCn1cncn1)NCC(c1ccco1)N1CCCCC1 (stereo not given) ... 2.22

Form field: reported Percent Effect of Cc1cc(C[C@@H]2CCC[C@H]2NCc2ccccc2C(F)(F)F)on1
8.14

Form field: reported Percent Effect of Cc1nc(N2CCCC2)nc2c1CCN(C(=O)C1CCCC1)CC2
0.866

###

- experimentalTarget: Tyrosyl-tRNA synthetase, putative (Trypanosoma cruzi (strain CL Brener)) (UniProt Q4DSP6)
- Sequence (Q4DSP6 as listed by the source): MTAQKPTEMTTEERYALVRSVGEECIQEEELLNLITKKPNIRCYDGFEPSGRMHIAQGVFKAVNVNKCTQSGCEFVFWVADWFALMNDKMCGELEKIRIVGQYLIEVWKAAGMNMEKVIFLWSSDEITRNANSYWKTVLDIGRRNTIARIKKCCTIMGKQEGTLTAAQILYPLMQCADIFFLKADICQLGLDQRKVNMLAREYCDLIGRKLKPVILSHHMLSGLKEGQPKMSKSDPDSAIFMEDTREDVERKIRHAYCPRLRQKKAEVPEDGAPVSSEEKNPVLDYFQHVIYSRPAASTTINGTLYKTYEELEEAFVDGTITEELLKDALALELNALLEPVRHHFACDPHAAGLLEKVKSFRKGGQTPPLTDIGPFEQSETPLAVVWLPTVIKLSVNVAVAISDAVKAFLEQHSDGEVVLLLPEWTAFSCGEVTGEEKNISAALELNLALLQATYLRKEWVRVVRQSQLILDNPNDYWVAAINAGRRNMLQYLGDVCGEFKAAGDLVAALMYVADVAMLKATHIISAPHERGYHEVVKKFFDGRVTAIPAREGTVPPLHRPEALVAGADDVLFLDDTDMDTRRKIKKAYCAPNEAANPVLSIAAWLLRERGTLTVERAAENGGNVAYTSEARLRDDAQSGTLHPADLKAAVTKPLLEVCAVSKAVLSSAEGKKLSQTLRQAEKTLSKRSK
- protocol: Trypanosoma cruzi tyrosyl tRNA synthetase (TcYRS) SOP
- Format: functional
- Set-up: scale not given: direction of the effect not stated beside the values
- conditionDescription: 30 µM
resultType: Percent Effect (%)
A number alone suffices; assume %.

Solved cases (2 shown):
Cc1ccc(NS(=O)(=O)c2cc3c(c(C(=O)O)c2)OCCO3)c(F)c1 ... 13.6
Cc1noc(CCCC(=O)NC(C)c2cccnc2)n1 (stereo not drawn) ... 12.2

Form field: reported Percent Effect of COc1ccccc1CC(=O)NS(=O)(=O)c1cncc(Br)c1
-4.88

###

- experimentalTarget: Chromo domain-containing protein 1 (Saccharomyces cerevisiae (strain ATCC 204508 / S288c) (Baker's yeast)) (UniProt P32657)
- Sequence (P32657 whole entry, the tested form may be a part): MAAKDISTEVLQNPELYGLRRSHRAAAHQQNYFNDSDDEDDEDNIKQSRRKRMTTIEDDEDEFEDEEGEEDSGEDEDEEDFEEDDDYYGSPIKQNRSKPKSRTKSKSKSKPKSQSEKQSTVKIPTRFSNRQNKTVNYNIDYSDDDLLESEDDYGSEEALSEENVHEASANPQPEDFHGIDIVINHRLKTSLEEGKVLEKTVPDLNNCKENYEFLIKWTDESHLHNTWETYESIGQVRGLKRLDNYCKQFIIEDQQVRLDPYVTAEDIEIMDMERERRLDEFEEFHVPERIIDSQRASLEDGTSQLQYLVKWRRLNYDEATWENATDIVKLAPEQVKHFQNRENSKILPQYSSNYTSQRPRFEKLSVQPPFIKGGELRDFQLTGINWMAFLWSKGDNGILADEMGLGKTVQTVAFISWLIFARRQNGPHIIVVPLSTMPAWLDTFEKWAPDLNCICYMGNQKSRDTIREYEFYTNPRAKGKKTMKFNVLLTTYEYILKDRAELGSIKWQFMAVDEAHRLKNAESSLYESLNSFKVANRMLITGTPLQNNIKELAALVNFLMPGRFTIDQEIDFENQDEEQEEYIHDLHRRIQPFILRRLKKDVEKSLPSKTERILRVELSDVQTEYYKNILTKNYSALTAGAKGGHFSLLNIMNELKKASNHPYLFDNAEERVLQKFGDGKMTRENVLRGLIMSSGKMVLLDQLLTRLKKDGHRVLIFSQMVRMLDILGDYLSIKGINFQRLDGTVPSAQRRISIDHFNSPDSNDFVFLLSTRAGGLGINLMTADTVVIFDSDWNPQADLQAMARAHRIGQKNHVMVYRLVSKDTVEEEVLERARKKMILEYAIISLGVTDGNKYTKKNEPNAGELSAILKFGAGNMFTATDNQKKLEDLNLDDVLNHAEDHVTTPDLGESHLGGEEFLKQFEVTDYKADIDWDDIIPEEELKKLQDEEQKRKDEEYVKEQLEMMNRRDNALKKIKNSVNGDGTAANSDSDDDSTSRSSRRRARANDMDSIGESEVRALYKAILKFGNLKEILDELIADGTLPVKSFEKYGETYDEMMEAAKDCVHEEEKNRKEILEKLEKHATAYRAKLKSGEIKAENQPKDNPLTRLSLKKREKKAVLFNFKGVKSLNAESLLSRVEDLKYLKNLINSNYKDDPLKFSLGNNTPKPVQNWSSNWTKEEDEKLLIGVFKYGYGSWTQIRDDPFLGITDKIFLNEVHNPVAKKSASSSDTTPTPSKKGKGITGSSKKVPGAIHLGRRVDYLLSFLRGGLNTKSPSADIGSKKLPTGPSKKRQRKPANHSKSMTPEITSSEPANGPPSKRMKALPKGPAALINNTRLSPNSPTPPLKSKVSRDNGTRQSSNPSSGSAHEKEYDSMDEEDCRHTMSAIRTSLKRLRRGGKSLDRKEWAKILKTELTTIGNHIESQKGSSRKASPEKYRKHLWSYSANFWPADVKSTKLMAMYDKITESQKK
- protocol: ScCHD-1 Enzyme Inhibition Assay; also: in the data most compounds retested in dose-response had high values
- Format: functional
- Parameters: scale not given: direction of the effect not stated beside the values
- conditionDescription: 30 µM
Measured Percent Effect by item
A number alone suffices; assume %.

COc1ccccc1C1CNC(=O)c2nc(-c3cnn(C)c3)[nH]c2C1 (stereo not given) ... -0.454
COc1ccc2cc(C3CN(C(=O)C4CCOCC4)CCO3)ccc2c1 (stereo not given) ... -2.89
CC(C)c1nnc2ccc(N3CCC(C(N)=O)CC3)nn12 ... -7.68
O=C(c1ccc[nH]1)N1CCn2cc(Cn3cncn3)nc2C1 ... -3.1

Form field: reported Percent Effect of Nc1nccc(N2CCCC(CO)(CCOc3ccccc3)C2)n1 (stereo not given)
-3.14

Form field: reported Percent Effect of CCc1nccn1C1CCCN(C(=O)c2ccc(C(=O)NC)nc2)C1 (stereo not given)
-4.59

Form field: reported Percent Effect of CSCCC(=O)N1CCC(Oc2cc(C)ccc2F)(C(=O)O)CC1
2.79

###

Measured Percent Effect by item
- System: Trypanosoma cruzi
- protocol: Trypanosoma cruzi phosphomannomutase and mannose-1-phosphate guanylyltransferase assay
- Type: functional
- Set-up: scale not given: direction of the effect not stated beside the values
- conditionDescription: 10 µM
A number alone suffices; assume %.

O=C(c1cscn1)N1CCC[C@]2(C[C@H](OCC3CC3)CO2)C1 ... 5.91
CCC1=N[C@@]2(CC[C@@H]3CN(C(=O)Nc4ccc(F)cc4)C[C@@H]32)C(=O)N1 ... 7.42
COc1cc(C(=O)N2CCC(c3n[nH]c(C4CC4)n3)CC2)ccc1C ... -1.33
CC(C)(C)NC(=O)CN1CCN(C(=O)Nc2ccc(F)cc2F)CC1 ... -8.73
Cc1cccc(CN2C(=O)CC[C@@H]3[C@H]2CCN3CC2CCOCC2)n1 ... 2.36

Enter reported Percent Effect observed with Trypanosoma cruzi for CC(NC(=O)c1cccs1)C(=O)NCc1cccnc1N1CCCCC1 (configuration not stated)
-3.93

Enter reported Percent Effect observed with Trypanosoma cruzi for CN1C(=O)CC(C(=O)O)C12CCN(Cc1ccc(F)cc1Cl)CC2 (configuration not stated)
3.41

Enter reported Percent Effect observed with Trypanosoma cruzi for CCCNC(=O)N1CCN(Cc2cc(C)no2)CC1
6.07

###

- experimentalTarget: Chromo domain-containing protein 1 (Saccharomyces cerevisiae (strain ATCC 204508 / S288c) (Baker's yeast)) (UniProt P32657)
- protocol: ScCHD-1 Enzyme Inhibition Assay; also: in the data most compounds retested in dose-response had high values
- Assay type: functional
- Set-up: scale not given: direction of the effect not stated beside the values
- conditionDescription: 30 µM
Measured Percent Effect by item
A number alone suffices; assume %.

CCCc1cc(C(=O)N(C)Cc2cnc3ccccc3n2)n(C)n1 ... 2.1
Cc1cccc(NC(=O)N2CCCn3cnc(CN4CCCC4)c3C2)c1 ... -4.14
O=C1CC(c2cccs2)c2cnn(C3CCCC3)c2N1 (centres undefined) ... 1.62

Form field: reported Percent Effect of CC(C)(C)c1nnc(CN2CCCC(c3cc(C(N)=O)[nH]n3)C2)o1 (centres undefined)
-5.5

###

Measured Percent Effect by item
- experimentalTarget: Ubiquitin-activating enzyme e1, putative (Leishmania donovani (strain BPK282A1))
- protocol: Leishmania donovani Ubiquitin Activating Enzyme (LdE1)
- Format: functional
- Parameters: scale not given: direction of the effect not stated beside the values
- conditionDescription: 30 µM
Entries with a potency or affinity are not part of this list.
A number alone suffices; assume %.

Solved cases (3 shown):
Cc1cccc(NC2CCN(C(=O)Nc3cccc4[nH]ccc34)CC2)n1 ... 17.7
N#Cc1cc(NC(=O)c2ccccc2)ccc1N1CCC(O)CC1 ... 10.8
CCN1CCN(Cc2coc(-c3cccc(F)c3)n2)CC1 ... 18.2

Enter reported Percent Effect observed with Ubiquitin-activating enzyme e1, putative (Leishmania donovani (strain BPK282A1)) for CNC(=O)NC(=O)CN1CCC(c2cccc(F)c2)C1 (stereo not given)
0

Enter reported Percent Effect observed with Ubiquitin-activating enzyme e1, putative (Leishmania donovani (strain BPK282A1)) for O=C(NCC(F)F)N1CCC(n2ccc(C(F)(F)F)n2)CC1
5.48

Enter reported Percent Effect observed with Ubiquitin-activating enzyme e1, putative (Leishmania donovani (strain BPK282A1)) for CCNC(=O)N1CCCCC1CCO (stereo not given)
8.11

Enter reported Percent Effect observed with Ubiquitin-activating enzyme e1, putative (Leishmania donovani (strain BPK282A1)) for Cc1cc(C(=O)N2C[C@@H]3COC[C@]3(COCc3cccnc3)C2)no1
33.8

Enter reported Percent Effect observed with Ubiquitin-activating enzyme e1, putative (Leishmania donovani (strain BPK282A1)) for COc1ccccc1CNC(=O)C1=NN(c2ccc(C)cc2)C(=O)CN1
13.5

Enter reported Percent Effect observed with Ubiquitin-activating enzyme e1, putative (Leishmania donovani (strain BPK282A1)) for COc1cccc(CNC(=O)CC2CSc3ncc(C)c(=O)n32)c1 (stereo not given)
15.6

Enter reported Percent Effect observed with Ubiquitin-activating enzyme e1, putative (Leishmania donovani (strain BPK282A1)) for COCC1CN(Cc2ccncc2)Cc2nnn(CC3CC3)c21 (stereo not given)
0

Enter reported Percent Effect observed with Ubiquitin-activating enzyme e1, putative (Leishmania donovani (strain BPK282A1)) for CCc1nc(CN(C)C2CCN(CCn3cc(C#N)cn3)C2)no1 (stereo not given)
13.5

Enter reported Percent Effect observed with Ubiquitin-activating enzyme e1, putative (Leishmania donovani (strain BPK282A1)) for N#Cc1cccnc1NCc1cccnc1N1CCC(C(N)=O)CC1
8.11

Enter reported Percent Effect observed with Ubiquitin-activating enzyme e1, putative (Leishmania donovani (strain BPK282A1)) for NC(=O)C1CCCN1Cc1cccc(NC(=O)c2ccsc2)c1 (stereo not given)
13.3

Enter reported Percent Effect observed with Ubiquitin-activating enzyme e1, putative (Leishmania donovani (strain BPK282A1)) for CNC(=O)Nc1cc(-c2ccccc2C)nn1CCO
7.89

Enter reported Percent Effect observed with Ubiquitin-activating enzyme e1, putative (Leishmania donovani (strain BPK282A1)) for Cc1ccc(C(=O)N2Cc3ccccc3C2)cc1N1CCNC1=O
2.67

Enter reported Percent Effect observed with Ubiquitin-activating enzyme e1, putative (Leishmania donovani (strain BPK282A1)) for O=C(CCC1CC1)N1C[C@@H](CN2CCCC2)[C@@H](CO)C1
0

Enter reported Percent Effect observed with Ubiquitin-activating enzyme e1, putative (Leishmania donovani (strain BPK282A1)) for Cc1nc(CN2C[C@@H]3CN(C(=O)c4cnccn4)C[C@@H]3C2)cs1
5.48

Enter reported Percent Effect observed with Ubiquitin-activating enzyme e1, putative (Leishmania donovani (strain BPK282A1)) for CC(C)c1nn(C)c(N(C)C)c1CNCC(O)c1ccccc1F (stereo not given)
18.2

Enter reported Percent Effect observed with Ubiquitin-activating enzyme e1, putative (Leishmania donovani (strain BPK282A1)) for CN(C)C(=O)c1ccc2c(c1)N(C)C(CC(=O)NC(C)(C)CO)CO2 (stereo not given)
-4.17

###

- experimentalTarget: Arginase-2, mitochondrial (Homo sapiens)
- Sequence (whole entry): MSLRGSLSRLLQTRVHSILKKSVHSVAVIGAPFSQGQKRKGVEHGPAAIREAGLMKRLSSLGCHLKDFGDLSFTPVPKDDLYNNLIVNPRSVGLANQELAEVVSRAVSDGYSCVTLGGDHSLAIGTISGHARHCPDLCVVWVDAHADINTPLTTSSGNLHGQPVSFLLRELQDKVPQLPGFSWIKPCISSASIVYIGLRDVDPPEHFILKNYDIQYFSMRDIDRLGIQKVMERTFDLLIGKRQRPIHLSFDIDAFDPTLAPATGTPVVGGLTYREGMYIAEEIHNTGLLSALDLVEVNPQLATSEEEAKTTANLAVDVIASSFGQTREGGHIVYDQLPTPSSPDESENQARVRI
- protocol: in vitro enzyme assay to detect the production of urea directly proportional to the activity of Arginase II; also: in the data most compounds retested in dose-response had high values
- Assay type: functional
- Design: scale not given: direction of the effect not stated beside the values
- conditionDescription: 33.3 µM
Measured Percent Effect by item
A number alone suffices; assume %.

Form field: reported Percent Effect of O=C(NCCNc1ncccn1)N1CCN(Cc2cccnc2)CC1
-16

Form field: reported Percent Effect of CCCc1nc(CN2CCN(CC(O)c3ccccc3)CC2)no1 (configuration not stated)
4.09

Form field: reported Percent Effect of CC(C)n1ccnc1C1CCCN(c2ccnc3ccccc23)C1 (configuration not stated)
-1.04

Form field: reported Percent Effect of Cc1[nH]ccc1C(=O)Nc1cccc(CN2CCC(CO)CC2)c1
-17.8

Form field: reported Percent Effect of COCCN1CCC(NCc2ccc(C#N)cc2)C1 (configuration not stated)
4.98

Form field: reported Percent Effect of COCCN(C)C(=O)Cn1cccc(OC)c1=O
3.99
